Biological target: recombinant HA of influenza B virus B/Wisconsin/10 (Yamagata clade) (influenza B virus B/Wisconsin/10 …)
Assay: recombinant HA ELISA (AttoPhos fluorescence, mean of triplicates)
assayMetric: fold reactivity over background (fold over background)
API: value field is a number in fold over background; no unit string.

binder TRL845 (antibody, V domains shown) VH: QVQLVQSGGDLVQPGGSLRLSCAASGFTFSRYSMNWVRQAPGMGLEWVAYISDTSRTIYYADSVKGRFTISRDNAKNSLYLQMKSLRDEDTAVYYCARDPDTPFVRAFDSWGQGTLVTVSS VL: DIVLTQSPSFLSASVGDRVTITCRASQLISSYFAWYQQKPGKPPKLLIYAASTLQSGVPSRFSGSGSGTQFSLTISSLQPEDFATYYCQQLNSYPPITFGQGTRLEIKR , fold reactivity over background observed: 25.6

Noted for TRL832 (antibody, V domains shown) VH: QVQLVESGPGLMKPSETLSLTCTVSGGSVSNYYWSWIRQPPGKGLEWIGYVFYSGSSNYNPSLNNPSLKSRVTISIDTSNNQFSLKLSSVTAADTAVYYCARGRVNSGYDWGPNFDSWGQGALVTVSS VL: DIVLTQAPSVSVSPGQTASITCSGDRLGEKFASWYQQKPGQSPVLVIYEDSKRPSGIPDRFSGSNSGNTATLTISGTQIMDEGDFFCQAWDSSTVVFGGGTKLTVLG : its fold reactivity over background reads 25.6

The binder listed as TRL812 (antibody, V domains shown) VH: QVQLVQSGGGVVQPGRSLRLSCAASGFNFSSYGMHWVRQAPGKGLEWLSVIWSGGSNKYYADSVKGRFTISRDDSKNTVYLQMNSLRDEDTAVYYCARAHTALTRFRWLDPWGQGILVTVSS VL: DIVMTQSPATLSVSPGEGATLSCRASQGIGSNLAWYQHKPGQAPRLLIYAASTRATGVPARFSGSGSGTEFTLTISSLQSEDLAVYFCQQYNTWPLTFGGGTKVEIIR has a reported fold reactivity over background of 25.6

GET /value?item= TRL053 (antibody, V domains shown) VH: QVQLVQSGAEVRKPGSSVKVSCKVSGGIIRKYAINWVRQAPGQGLEWMGGIIAIFNTANYAQKFQGRVTITADESTSTVYMELSSLRSEDTALYYCARGMNYYSDYFDYWGQGSLVTVSP VL: EIVLTQSPGTLSLSPGERATLSCRASQSVRSNNLAWYQHKPGQAPRLLIFGASSRATGIPDRFSGSGSGTDFTLTISRLEPEDFAVYYCQQYGSSPALTFGGGTKVEIKR &field=fold reactivity over background returns 2.8

The binder listed as TRL841 (antibody, V domains shown) VH: QVQLVESGGGVVQPGRSLRLSCAASGFTFSSYGIYWVRQAPGKGLEWVAFISYDEINKFYADSVKGRFTISRDNSKNTVFLQMNSLRDEDTAVYYCAKPLRGSYRYFDLWGRGTVVTVSS VL: DIVMTQPPATLSVSPGERATLSCGASQGLGSNLAWYQQKPGQAPRLLIYAASTRATGITARFSGSGSGTEFTLTINSLQSEDFALYYCQQYTYWPLTFGGGTKVEIKR shows fold reactivity over background equal to 25.6
